- TESTED_ON: human GLP-1 receptor (human, UniProt P43220 24-463)
- ASSAY: cell-based or functional assay
*1 amine or outer side, *2 acyl side, *3 side chain or, on linkers, in order; H or OH if unused. Where no end group is shown, it is not given here. Side-chain parts run from the residue outwards. [ ]: non-standard residue; d: D form. The star is where a group is joined. γGlu = O=C(O)[C@H](CCC(=O)[*:2])N[*:1]; Stearoyl = CCCCCCCCCCCCCCCCCC(=O)*; Palmitoyl = CCCCCCCCCCCCCCCC(=O)*; Aib = CC(C)(N)C(=O)O
Param label: returns Condition met when EC50 hGLP-1R (cAMP formation) < 6 pM, returns Condition not met otherwise, including exact equality.

BINDER	CLASS_ASSIGNMENT
HSQGTFTSDLSKQMDERRAQDFIEWLKNGGPSSGAPPPS-NH2 [SEQ ID NO: (5)]	Condition not met
HSEGTFTSDLSKQMDSRRAQDFIEWLKNGGPSSGAPPPS-NH2 [SEQ ID NO: (10)]	Condition not met
H[dS]QGTFTSDLSKQMESRRAQDFIEWLKSGGPSSGAPPPSK([γGlu-Stearoyl])-NH2 [SEQ ID NO: (84)]	Condition met
Ac-H[dS]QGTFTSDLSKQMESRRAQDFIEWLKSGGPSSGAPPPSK([γGlu-Palmitoyl])-NH2 [SEQ ID NO: (83)]	Condition not met
H[dS]QGTFTSDLSKQMESRRAQDFIEWLK[Aib]GGPSSGAPPPSK([γGlu-Palmitoyl])-NH2 [SEQ ID NO: (73)]	Condition met
H[dS]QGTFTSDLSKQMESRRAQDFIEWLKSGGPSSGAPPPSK([γGlu-γGlu-Palmitoyl])-NH2 [SEQ ID NO: (97)]	Condition met
H[dS]QGTFTSDLSKQMDSRRAQDFIEWLKNAGPSSGAPPPSK([γGlu-Palmitoyl])-NH2 [SEQ ID NO: (67)]	Condition not met
H[dS]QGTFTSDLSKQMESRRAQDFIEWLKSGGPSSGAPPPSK(Ac)-NH2 [SEQ ID NO: (105)]	Condition not met
H[dS]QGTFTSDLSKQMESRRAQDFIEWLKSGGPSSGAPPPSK(Stearoyl)-NH2 [SEQ ID NO: (85)]	Condition not met
HSQGTFTSDLSKQMDSRRAQDFIEWLKNGGPSSGAPPPK([γGlu-Palmitoyl])-NH2 [SEQ ID NO: (6)]	Condition met
HSQGTFTSDLSKQMEERRAKDFIEWLKNGGPSSGAPPPS-NH2 [SEQ ID NO: (16)]	Condition not met
HAQGTFTSDLSKQMDSRRAQDFIEWLKNGGPSSGAPPPS-NH2 [SEQ ID NO: (39)]	Condition met
